system: T1, human SIRP-α v2 D1 domain (human)
T1 construct: also called human v2
T1 sequence (chain, as listed by the source limits assumed): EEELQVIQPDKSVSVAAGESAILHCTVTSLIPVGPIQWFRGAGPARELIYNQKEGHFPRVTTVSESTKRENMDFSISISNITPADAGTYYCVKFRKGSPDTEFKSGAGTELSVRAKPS
protocol: SPR, Langmuir fit
resultType: koff (s⁻¹)
Report as a plain number; the unit s⁻¹ is understood.

Incoming: I am curious: what koff value has been reported for S163 (scFv, V domains shown) VH: DVQLVESGGGLVRPGESLRLSCAASGFTFTNYAVTWVRQAPGEGLEWVSLISVTGTTYYADSVKGRFTISRDNSKSTLYLQMNGLRAEDTAVYYCAKVTWKNVFDYWGLGTLVTVSS VL: EIVLTQSPGTLSVSPGERATFSCRASQTVGSKLAWYQQKPGQAPRLLIYDANTRATGIPARFSGSGSGTEFTLTISSLQSEDFAVYYCQQHTDWPPYTFGGGTKVEIK ?
Outgoing: 0.00664

Incoming: Record request: koff value, item S173 (scFv, V domains shown) VH: DVQLVESGGGVVRPGESLRLSCAASGFAFSDHDMSWVRQGPGEGLEWVAGISLRGGVTWYADSVKGRFTISRDNSKNTLYLRLFSLRTEDTAIYYCARESWNTFFDYWGLGTLVTVSS VL: EIVLTQSPGTLSLSPGETATLSCRASQNVRSNLAWYQQKPGQAPRLLIYDASSRATGIPDRFSGSGSGTDFTLTISSLQSEDFAVYYCQQYGNGPPLTFGGGTKVEIK
Outgoing: 0.00504
